Experiment: Cmax in nude mouse xenografted with human KG1 cells at 25 mg/kg, po bid for 18 days measured at 8 hrs post last dose
Type: ADME, organism-based
Design: dose 25 mg/kg, route oral
Conditions: in vivo
readout-label: Cmax (nM)
# value in nM; strip the unit string

Let me know recorded Cmax for COCCC#Cc1c(Cl)c2c(Cl)cc(C(N)=O)nc2n1[C@H]1CCCNC1 , thanks.
320

----------
Experiment: Drug uptake in tumor of mouse xenografted with human KG1 cells at 25 mg/kg, po administered as single dose and measured at 8 hrs post dose
Type: ADME, organism-based, Neoplasm
Details: read-out: Drug uptake
readout-label: concentration at 8 h

Identify the reported concentration at 8 h for the following entry. COCCC#Cc1c(Cl)c2c(Cl)cc(C(N)=O)nc2n1[C@H]1CCCNC1
24 µM

----------
Test: Efflux ratio of permeability in human Caco2/TC7 cells at 5 uM
Type: ADME, cell-based
Details: Caco-2
readout-label: efflux ratio at 5 µM
Give the value as a plain number.

NC(=O)c1cc(Cl)c2c(Cl)c(C#CCO)n([C@H]3CCCNC3)c2n1 : 120
CC(O)C#Cc1c(Cl)c2c(Cl)cc(C(N)=O)nc2n1[C@H]1CCCNC1 (stereo not given in full) : 37

Identify efflux ratio at 5 µM associated with the compound NC(=O)c1cc(Cl)c2c(Cl)c(C#CCCO)n([C@H]3CCCNC3)c2n1
8.8

Read off the recorded efflux ratio at 5 µM for CC(O)CC#Cc1c(Cl)c2c(Cl)cc(C(N)=O)nc2n1[C@H]1CCCNC1 (stereo not given in full)
53

Please give the documented efflux ratio at 5 µM of NC(=O)c1cc(Cl)c2c(Cl)c(C#CC3CC3)n([C@H]3CCCNC3)c2n1
2.5

----------
Cmax values by entry
Test: Cmax in rat at 10 mg/kg, po administered as single dose
Type: ADME, organism-based
Design: dose 10 mg/kg, route oral
Conditions: in vivo
Write the number in µg/mL without appending the unit.

NC(=O)c1cc(Cl)c2c(Cl)c(C#CC3CCOCC3)n([C@H]3CCCNC3)c2n1 : 0.091
COCCC#Cc1c(Cl)c2c(Cl)cc(C(N)=O)nc2n1[C@H]1CCCNC1 : 0.092

Attention now shifts to the item below.
Check the records and state Cmax for NC(=O)c1cc(Cl)c2c(Cl)c(C#CC3CCCO3)n([C@H]3CCCNC3)c2n1 (stereo in doubt; 20b)
0.054

----------
Experiment: Cmax in nude mouse xenografted with human KG1 cells at 50 mg/kg, po bid for 18 days measured at 8 hrs post last dose
Format: ADME, organism-based
Design: dose 50 mg/kg, route oral
Details: in vivo
readout-label: Cmax (nM)
The figure you give is taken to be in nM; do not add the unit.

Please look at this molecule and report its Cmax: COCCC#Cc1c(Cl)c2c(Cl)cc(C(N)=O)nc2n1[C@H]1CCCNC1
520

----------
Target: Voltage-gated inwardly rectifying potassium channel KCNH2 (Homo sapiens, UniProt Q12809)
Friendly reminder: IC50 below 3000 nM is true (1), at or above is false (0).

Please check: IC50 for NC(=O)c1cc(Cl)c2c(Cl)c(C#CC3CNCCO3)n([C@H]3CCCNC3)c2n1 (stereo in doubt; 29a) , strictly under 3000 nM or not?
false (0)

Could you please tell me whether IC50 recorded for NC(=O)c1cc(Cl)c2c(Cl)c(C#CC3CCOCC3)n([C@H]3CCCNC3)c2n1 is less than 3000 nM?
true (1)

Here's an entry: NC(=O)c1cc(Cl)c2c(Cl)c(C#CC3COCCO3)n([C@H]3CCCNC3)c2n1 (stereo in doubt; 22a) . Is its IC50 below 3000 nM?
true (1)

----------
Test: Clearance in mouse liver microsomes assessed as drug extraction at 5 uM
Format: ADME, Microsome
Details: liver microsomes, read-out: CLH
readout-label: hepatic extraction ratio at 5 µM
Simply state the number, no unit and no words.

Below: 2 molecules and their reported hepatic extraction ratio at 5 µM.
COC(C)(C)CC#Cc1c(Cl)c2c(Cl)cc(C(N)=O)nc2n1[C@H]1CCCNC1 : 0.33
CC1(CC#Cc2c(Cl)c3c(Cl)cc(C(N)=O)nc3n2[C@H]2CCCNC2)COC1 : 0.35

Consider the molecule COCC(C)(C)C#Cc1c(Cl)c2c(Cl)cc(C(N)=O)nc2n1[C@H]1CCCNC1 and give its recorded hepatic extraction ratio at 5 µM.
0.32

Determine from records and report hepatic extraction ratio at 5 µM for CC(C)(C#N)CC#Cc1c(Cl)c2c(Cl)cc(C(N)=O)nc2n1[C@H]1CCCNC1
0.08

----------
Test: Protein binding in mouse plasma
Assay type: ADME, cell-free
Details: read-out: PPB (converted)
readout-label: fraction unbound
In your answer, state the number alone without any accompanying words.

State its fraction unbound for this compound: COCCC#Cc1c(Cl)c2c(Cl)cc(C(N)=O)nc2n1[C@H]1CCCNC1
0.02

----------
Assay: Thermodynamic solubility in pH 7.4 solution
Assay type: physicochemical
Settings: buffer, read-out: Therm_solubility
Below: a set of entries, each annotated with reported log10 solubility thermodynamic.
Remember, log10 of solubility thermodynamic, in µM.

COCCC#Cc1c(Cl)c2c(Cl)cc(C(N)=O)nc2n1[C@H]1CCCNC1 : 1.93

Note log10 solubility thermodynamic for the compound shown: NC(=O)c1cc(Cl)c2c(Cl)c(C#CCCO)n([C@H]3CCCNC3)c2n1
2.16

For the compound CC(O)CC#Cc1c(Cl)c2c(Cl)cc(C(N)=O)nc2n1[C@H]1CCCNC1 (some centres not stated) , give its measured log10 solubility thermodynamic value.
2.88

Read the entry CC(O)C#Cc1c(Cl)c2c(Cl)cc(C(N)=O)nc2n1[C@H]1CCCNC1 (some centres not stated) and write its reported log10 solubility thermodynamic.
2.31

Using known records, supply log10 solubility thermodynamic for NC(=O)c1cc(Cl)c2c(Cl)c(C#CC3CCCO3)n([C@H]3CCCNC3)c2n1 (stereo in doubt; 20a)
2.32

Quickly give me recorded log10 solubility thermodynamic for NC(=O)c1cc(Cl)c2c(Cl)c(C#CC3CC3)n([C@H]3CCCNC3)c2n1
1.11

Return reported log10 solubility thermodynamic. Input compound: COC(C)(C)CC#Cc1c(Cl)c2c(Cl)cc(C(N)=O)nc2n1[C@H]1CCCNC1
0.08

----------
Reported hepatic extraction ratio at 5 µM values are given for each entry in this list.
Experiment: Clearance in human liver microsomes assessed as drug extraction at 5 uM
Type: ADME, Microsome
Details: liver microsomes, read-out: CLH

Use these answered entries as a reference point.
COCC(C)(C)C#Cc1c(Cl)c2c(Cl)cc(C(N)=O)nc2n1[C@H]1CCCNC1 : 0.1
NC(=O)c1cc(Cl)c2c(Cl)c(C#CCN3CCCC3=O)n([C@H]3CCCNC3)c2n1 : 0.03
CC(C)(C#N)CC#Cc1c(Cl)c2c(Cl)cc(C(N)=O)nc2n1[C@H]1CCCNC1 : 0.03

Moving on to the next molecule.
Consider the molecule NC(=O)c1cc(Cl)c2c(Cl)c(C#CC3COCCO3)n([C@H]3CCCNC3)c2n1 (stereo in doubt; 22a) and give its recorded hepatic extraction ratio at 5 µM.
0.1

----------
Quick record of IC50 values for Serine/threonine-protein kinase pim-1 (Homo sapiens).
I only need the number, in nM, no unit after it.

Example molecules with recorded IC50:
NC(=O)c1cc(Cl)c2c(Cl)c(C#CCN3CCCC3=O)n([C@H]3CCCNC3)c2n1 : 2
NC(=O)c1cc(Cl)c2c(Cl)c(C#CC3CNCCO3)n([C@H]3CCCNC3)c2n1 (stereo in doubt; 29a) : 2.8
CC(O)CC#Cc1c(Cl)c2c(Cl)cc(C(N)=O)nc2n1[C@H]1CCCNC1 (some centres undefined) : 1

Let us move to another entry and its IC50.
Please indicate recorded IC50 of CC(O)C#Cc1c(Cl)c2c(Cl)cc(C(N)=O)nc2n1[C@H]1CCCNC1 (some centres undefined) measured with Serine/threonine-protein kinase pim-1 (Homo sapiens).
1.1

----------
Known EC50 of a selection of molecules
Molecular target: Serine/threonine-protein kinase PIM (Homo sapiens, UniProt P11309+Q9P1W9+Q86V86)
Test: Inhibition of PIM in human KG1 cells assessed as reduction in pS6 level
Assay type: cell-based
Number only, in nM; omit the unit.

Below are worked cases with known answers.
NC(=O)c1cc(Cl)c2c(Cl)c(C#CCO)n([C@H]3CCCNC3)c2n1 : 59
NC(=O)c1cc(Cl)c2c(Cl)c(C#CCN3CCCC3=O)n([C@H]3CCCNC3)c2n1 : 93
NC(=O)c1cc(Cl)c2c(Cl)c(C#CC3COCCO3)n([C@H]3CCCNC3)c2n1 (stereo in doubt; 22b) : 95

Give the measured EC50 for COC(C)(C)CC#Cc1c(Cl)c2c(Cl)cc(C(N)=O)nc2n1[C@H]1CCCNC1
61

# return recorded EC50 for input CC1(C#Cc2c(Cl)c3c(Cl)cc(C(N)=O)nc3n2[C@H]2CCCNC2)COC1
37

Quick one: give measured EC50 for NC(=O)c1cc(Cl)c2c(Cl)c(C#CC3CC3)n([C@H]3CCCNC3)c2n1
28

Quickly give me recorded EC50 for CC(C)(CC#Cc1c(Cl)c2c(Cl)cc(C(N)=O)nc2n1[C@H]1CCCNC1)C(N)=O
133

Using the record for NC(=O)c1cc(Cl)c2c(Cl)c(C#CC3COCCO3)n([C@H]3CCCNC3)c2n1 (stereo in doubt; 22a) , state its measured EC50.
70

Given NC(=O)c1cc(Cl)c2c(Cl)c(C#CC3CCCO3)n([C@H]3CCCNC3)c2n1 (stereo in doubt; 20b) , respond with its EC50.
69
